Listing: induction of selected compounds
- target_entity: Prostaglandin E2 receptor EP2 subtype (Homo sapiens) (UniProt P43116)
- Sequence (P43116 whole entry, looked up): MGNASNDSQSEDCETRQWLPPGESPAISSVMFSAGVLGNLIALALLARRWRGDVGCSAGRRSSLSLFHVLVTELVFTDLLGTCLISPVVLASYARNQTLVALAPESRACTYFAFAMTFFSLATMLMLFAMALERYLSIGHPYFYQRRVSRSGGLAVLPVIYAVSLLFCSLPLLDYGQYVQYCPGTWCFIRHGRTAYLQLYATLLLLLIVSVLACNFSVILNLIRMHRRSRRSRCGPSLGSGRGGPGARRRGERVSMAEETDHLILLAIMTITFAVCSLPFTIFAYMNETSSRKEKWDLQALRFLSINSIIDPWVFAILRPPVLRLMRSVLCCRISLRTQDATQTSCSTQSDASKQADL
- test_method_notes: EP2 receptor modulators, cAMP readout, primary screen, cell-based, HTRF cAMP, PGE2 stimulation (AID 940);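 further: rat C6 glioma line stably carrying human EP2 under a CMV promoter; the protocol text gives 20 µM as final concentration; 100% = response of wells given 1 µM PGE2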
- condition_summary: EP2-expressing cells, cAMP HTRF FRET, PGE2 co-stimulation; at 25 µM; active compounds read high
Out of some 260,000 compounds screened, about 2,200 (0.85%) were called active. Only a selection was taken, and actives are over-represented in it overall.
experimental_endpoint: induction

>>> result("CSc1nc(O)c(C2CCCCC2)c(=O)[nH]1")
"-1.22% (inactive)"
>>> result("COC(=O)C1=C(C)N(C)C(=S)NC1c1ccccc1 (stereo not drawn)")
"-3.11% (inactive)"
>>> result("CCCC(=O)Nc1ccc(Cl)c(NC(=O)c2ccc(Br)o2)c1")
"6.2% (inactive)"
>>> result("CCc1ccccc1NC(=O)Cc1cn(C)c2ccccc12")
"23.9% (inactive)"
>>> result("Cc1ccccc1-c1n[nH]c(=S)n1/N=C/c1ccc(-c2ccccc2Br)o1")
"77% (active)"
>>> result("COc1cc(OC)c(NC(=O)c2ccc(Br)o2)cc1Cl")
"-17.9% (inactive)"
>>> result("Clc1ccc(C=Nc2ccc3c(c2)Cc2ccccc2-3)c(Cl)c1")
"6.77% (inactive)"
>>> result("COc1cc(C2NC(=O)NC(C)=C2C(=O)Nc2cc(Cl)ccc2C)cc(OC)c1OC (stereo not drawn)")
"-22.7% (inactive)"
>>> result("COCCNC(=O)Cn1nc2c(C)cc3cc(C)cc(C)c3n2c1=O")
"-32.1% (inactive)"
>>> result("CCn1c(COc2ccc(OC)cc2)nnc1SC(C)C(=O)Nc1ccccc1C (stereo not drawn)")
"28.9% (inactive)"
>>> result("COc1cccc(CN2CCN(C(=O)CCn3nnc4ccccc43)[C@@H](C)C2)c1")
"-13.9% (inactive)"
>>> result("CCc1ccccc1NC(=O)/C(=C/c1ccccc1)c1ccccc1")
"65.2% (active)"
>>> result("COc1ccc(N(C(C)C(=O)N2CCN(C)CC2)S(C)(=O)=O)cc1 (stereo not drawn)")
"-14.6% (inactive)"
>>> result("COC(=O)c1sc2[nH]c(=S)n(N)c(=O)c2c1C")
"78.1% (active)"
>>> result("CC(C)[C@H](Cn1nc(-c2cccs2)ccc1=O)NC(=O)Cn1cnc2ccccc2c1=O")
"-6.72% (inactive)"
>>> result("CCOC(=O)N1CCN(CC(=O)Nc2cc(C)nn2-c2nc3ccccc3s2)CC1")
"32.4% (inactive)"
>>> result("O=C(CSc1nc2ccccc2c(=O)n1Cc1ccco1)Nc1ccccc1Cl")
"67.4% (active)"
>>> result("CCN(CC)C(=O)CSc1nc2ccccc2c(=O)n1-c1ccccc1")
"-15.6% (inactive)"
>>> result("S=C1Nc2cc(Cl)ccc2Sc2ccccc21")
"11.7% (inactive)"
>>> result("COC(=O)Cn1cnc2sc(C(=O)OC)c(C)c2c1=O")
"-5.66% (inactive)"
>>> result("O=C(Cn1nc(-c2ccncc2)oc1=O)N1CCCCC1")
"-10.9% (inactive)"
>>> result("CN1c2ncccc2C(=O)NC12CCN(C(=O)Cn1ncc3ccccc3c1=O)CC2")
"-10.6% (inactive)"
>>> result("CCNc1nc(C)c([N+](=O)[O-])c(C)c1C#N")
"68.9% (active)"
>>> result("CC1CCCN(CC(=O)N2CCN(C(=O)CN3CCCC(C)C3)CC2)C1 (stereo not drawn)")
"-44.2% (inactive)"
>>> result("CN(C)c1ccc(/C=N/N(Cc2ccccc2)c2ccccc2)cc1")
"23.9% (inactive)"
>>> result("Cc1n[nH]c(=S)n1/N=C/c1ccc(Br)o1")
"-3.02% (inactive)"
>>> result("Cc1nc(NCCN)c(C#N)c2c1COC(C)(C)C2")
"14.1% (inactive)"
>>> result("CC1(C)CC2CC(C)(CN2c2ncnc3ccc(Br)cc23)C1 (stereo not drawn)")
"70% (active)"

###

Below is a list of entries, each paired with its recorded induction value.
- target_entity: Prostaglandin E2 receptor EP2 subtype (Homo sapiens) (UniProt P43116)
- test_method_notes: EP2 receptor modulators, cAMP readout, primary screen, cell-based, HTRF cAMP, PGE2 stimulation (AID 940);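 further: rat C6 glioma line stably carrying human EP2 under a CMV promoter; the protocol text gives 20 µM as final concentration; 100% = response of wells given 1 µM PGE2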
- condition_summary: EP2-expressing cells, cAMP HTRF FRET, PGE2 co-stimulation; at 25 µM; active compounds read high
Out of some 260,000 compounds screened, about 2,200 (0.85%) were called active. The sample holds actives, similar compounds and a random draw of the others, so the mix is not that of the screen.
experimental_endpoint: induction

>>> result("COCCn1c(=O)n(CC(=O)N2CCN(c3ccccc3F)CC2)c2cccnc21")
"0.09% (inactive)"
>>> result("CCOc1ccc(/C=N/NC(=O)CSc2ccccn2)cc1O")
"65.8% (active)"
>>> result("C/C=N/N(c1ccccc1)c1ccccc1")
"64.5% (active)"
>>> result("CC(C)(C)c1nc2ccccc2c(=O)n1N1C(=O)c2ccccc2C1=O")
"65.2% (active)"
>>> result("COc1cc(C)c(-c2csc(NC(=O)C3(C)CCCO3)n2)cc1C (stereo unspecified)")
"-62.2% (inactive)"
>>> result("Cn1c(=O)[nH]c(=O)c2c1nc(NCCCO)n2Cc1cccc2ccccc12")
"22% (inactive)"

###

- target_entity: Prostaglandin E2 receptor EP2 subtype (Homo sapiens)
- test_method_notes: EP2 receptor modulators, cAMP readout, primary screen, cell-based, HTRF cAMP, PGE2 stimulation (AID 940);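 further: rat C6 glioma line stably carrying human EP2 under a CMV promoter; the protocol text gives 20 µM as final concentration; 100% = response of wells given 1 µM PGE2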
- condition_summary: EP2-expressing cells, cAMP HTRF FRET, PGE2 co-stimulation; at 25 µM; active compounds read high
Among all 260,000 compounds or so, about 2,200 (0.85%) were called active. The full list was thinned out, with actives kept by preference.
experimental_endpoint: induction

>>> result("Cc1cccc(C(=O)Nc2ccccc2N2CCN(c3ccc(F)cc3)CC2)c1")
"49.9% (inactive)"
>>> result("Cc1ccc(C)c(NC(=O)c2ccc3nccnc3c2)c1")
"-54% (inactive)"
>>> result("COc1ccc(NCc2nnc(SCC(=O)Nc3ccc(C)cc3)n2C)cc1")
"8.87% (inactive)"

# credit: PubChem BioAssay AID940
